Provenance of the data: the supplement of paper PMC7125110

B1: glmS ribozyme (parent)
chain: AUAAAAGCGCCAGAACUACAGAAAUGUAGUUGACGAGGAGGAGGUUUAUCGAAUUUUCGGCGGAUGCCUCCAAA

- Variants of: B1
- experimentSummary: self-cleavage kobs at 160 uM GlcN6P; higher = faster cleavage; RNA array
- reportedConditions: with glucosamine-6-phosphate
Variants at the floor of the assay were thinned out.
Given measured self-cleavage kobs at 160 uM GlcN6P, output True if it is greater than or equal to 0.0001 s⁻¹ and False if not.

>  <mutationString>
A42G C61G

>  <cat>
False

$$$$
>  <mutationString>
C8G G41A

>  <cat>
False

$$$$
>  <mutationString>
G7U G9C C10G A53C C61U

>  <cat>
False

$$$$
>  <mutationString>
C11G U46G G62A

>  <cat>
False

$$$$
>  <mutationString>
G37A A42U

>  <cat>
False

$$$$
>  <mutationString>
C11U U69A

>  <cat>
False

$$$$
>  <mutationString>
C61A G62U

>  <cat>
False

$$$$
>  <mutationString>
G40A G66C

>  <cat>
False

$$$$
>  <mutationString>
C10A G41C U46G C68U

>  <cat>
False

$$$$
>  <mutationString>
A15U C68U

>  <cat>
False

$$$$
>  <mutationString>
A42C A53U

>  <cat>
False

$$$$
>  <mutationString>
A6G A36U G41A U47A C67G

>  <cat>
False

$$$$
>  <mutationString>
A39U G44A

>  <cat>
True

$$$$
>  <mutationString>
C16U G40C C50A C67G

>  <cat>
False

$$$$
>  <mutationString>
A12C G40U

>  <cat>
True

$$$$
>  <mutationString>
G29U U54A U65A

>  <cat>
False

$$$$
>  <mutationString>
A12C C71G

>  <cat>
True

$$$$
>  <mutationString>
A39C A53U G59U C67U

>  <cat>
False

$$$$
>  <mutationString>
G7U G29C

>  <cat>
False

$$$$
>  <mutationString>
G35C G66C

>  <cat>
False

$$$$
>  <mutationString>
U46A A53G

>  <cat>
True

$$$$
>  <mutationString>
C11U A53G

>  <cat>
True

$$$$
>  <mutationString>
U31A G62C

>  <cat>
False

$$$$
>  <mutationString>
A6U C50A

>  <cat>
False

$$$$
>  <mutationString>
C58G C68G C71U

>  <cat>
False

$$$$
>  <mutationString>
A14C A23C G43C

>  <cat>
False

$$$$
>  <mutationString>
A33G G66A

>  <cat>
False

$$$$
>  <mutationString>
G38C G41A

>  <cat>
False

$$$$
>  <mutationString>
C16A U31A

>  <cat>
False

$$$$
>  <mutationString>
A52G G62A

>  <cat>
False

$$$$
>  <mutationString>
A14G U30C

>  <cat>
False

$$$$
>  <mutationString>
G29C A39U

>  <cat>
False

$$$$
>  <mutationString>
C16G A36G

>  <cat>
False

$$$$
>  <mutationString>
G44U U65G C70G

>  <cat>
False

$$$$
>  <mutationString>
G7C C68U

>  <cat>
False

$$$$
>  <mutationString>
U30G C50U

>  <cat>
False

$$$$
>  <mutationString>
G9A G32C C67U

>  <cat>
False

$$$$
>  <mutationString>
A53U U56A

>  <cat>
True

$$$$
>  <mutationString>
C50G C71A

>  <cat>
True

$$$$
>  <mutationString>
G35A C71G

>  <cat>
False

$$$$
>  <mutationString>
G13U G37A A53C G60U C67G

>  <cat>
False

$$$$
>  <mutationString>
A39C G41A

>  <cat>
False

$$$$
>  <mutationString>
C34U G51U

>  <cat>
False

$$$$
>  <mutationString>
C8A G60U

>  <cat>
False

$$$$
>  <mutationString>
A12C A53C

>  <cat>
True

$$$$
>  <mutationString>
G41A U45A

>  <cat>
True

$$$$
>  <mutationString>
C8G C50A

>  <cat>
False

$$$$
>  <mutationString>
G41U U45C

>  <cat>
False

$$$$
>  <mutationString>
A33C G63C

>  <cat>
False

$$$$
>  <mutationString>
A42G G66A

>  <cat>
True

$$$$
>  <mutationString>
A12G A64G

>  <cat>
False

$$$$
>  <mutationString>
C16U G35A

>  <cat>
False

$$$$
>  <mutationString>
G7C G51A

>  <cat>
False

$$$$
>  <mutationString>
A33G A64C

>  <cat>
False

$$$$
>  <mutationString>
C10A U46G

>  <cat>
False

$$$$
>  <mutationString>
U31G U56G C67U

>  <cat>
False

$$$$
>  <mutationString>
G29C C68U

>  <cat>
False

$$$$
>  <mutationString>
C8G C67A

>  <cat>
False

$$$$
>  <mutationString>
C10U U46C C70U

>  <cat>
False

$$$$
>  <mutationString>
A15U C67A

>  <cat>
True

$$$$
>  <mutationString>
C10G G32C A48U C61G

>  <cat>
False

$$$$
>  <mutationString>
A52U G60C

>  <cat>
False

$$$$
>  <mutationString>
G9U A42G U47C

>  <cat>
False

$$$$
>  <mutationString>
A12C U45A

>  <cat>
True

$$$$
>  <mutationString>
U56G A64C

>  <cat>
False

$$$$
>  <mutationString>
A53G A64U U69G

>  <cat>
True

$$$$
>  <mutationString>
A15U U65G

>  <cat>
False

$$$$
